# system.name: 5-hydroxytryptamine receptor 2C (Homo sapiens, UniProt P28335)
# Sequence (P28335 whole entry): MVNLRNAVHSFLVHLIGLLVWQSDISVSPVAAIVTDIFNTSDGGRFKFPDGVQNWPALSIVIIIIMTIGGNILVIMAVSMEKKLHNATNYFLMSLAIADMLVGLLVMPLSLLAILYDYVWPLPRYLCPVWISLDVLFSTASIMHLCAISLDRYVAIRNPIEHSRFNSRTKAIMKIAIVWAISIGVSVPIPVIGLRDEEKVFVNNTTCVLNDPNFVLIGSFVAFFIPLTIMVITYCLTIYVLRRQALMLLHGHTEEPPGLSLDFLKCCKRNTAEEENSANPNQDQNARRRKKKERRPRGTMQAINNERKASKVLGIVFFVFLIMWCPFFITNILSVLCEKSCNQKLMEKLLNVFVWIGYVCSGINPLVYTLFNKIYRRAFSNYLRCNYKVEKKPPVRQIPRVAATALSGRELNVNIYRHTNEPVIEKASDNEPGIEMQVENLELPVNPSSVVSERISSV
# measurement.protocol: Binding affinity towards 5-HT2C (human cloned receptor) in HEK 293 cells using [3H]mesulergine as radioligand.
# Type: cell-based, HEK293
pKi: −log10 of the molar value.
metric: pKi

-- ask What does the record list as pKi for CC1CCN(CCC2CCCCN2S(=O)(=O)c2cccc3ccccc23)CC1 (racemic) ?
-- reply < 5.00

----------
# system.name: 5-hydroxytryptamine receptor 2A (Homo sapiens)
# Sequence (P28223 whole entry): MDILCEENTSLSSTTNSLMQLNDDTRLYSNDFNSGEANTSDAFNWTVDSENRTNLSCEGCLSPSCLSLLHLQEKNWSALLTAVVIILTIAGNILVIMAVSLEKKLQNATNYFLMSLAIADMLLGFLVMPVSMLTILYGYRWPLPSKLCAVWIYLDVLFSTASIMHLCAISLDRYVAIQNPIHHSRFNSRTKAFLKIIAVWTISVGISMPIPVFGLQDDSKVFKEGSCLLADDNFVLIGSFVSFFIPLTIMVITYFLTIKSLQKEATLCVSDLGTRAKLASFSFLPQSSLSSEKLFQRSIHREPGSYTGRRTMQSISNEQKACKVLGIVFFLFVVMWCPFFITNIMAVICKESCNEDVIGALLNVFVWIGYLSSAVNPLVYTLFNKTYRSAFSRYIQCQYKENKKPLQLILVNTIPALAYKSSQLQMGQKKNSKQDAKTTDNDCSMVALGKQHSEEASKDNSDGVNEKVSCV
# measurement.protocol: Binding affinity towards 5-hydroxytryptamine 2A receptor (human cloned receptor) in HEK 293 cells using [3H]ketanserin as radioligand.
metric: Ki

Some compounds with known Ki results, for comparison:
>>> result("CC1CCN(CC[C@H]2CCCCN2S(=O)(=O)c2cccc3ccccc23)CC1")
"> 2.51 µM"
>>> result("Cc1cccc(S(=O)(=O)N2CCC[C@@H]2CCN2CCC(C)CC2)c1")
"> 5.01 µM"
>>> result("CC1CCN(CC[C@H]2CCCN2S(=O)(=O)c2ccc(Cl)c(Cl)c2)CC1")
"> 1 µM"
>>> result("CC1CCN(CC[C@H]2CCCN2S(=O)(=O)c2cccc(Br)c2)CC1")
"> 5.01 µM"
>>> result("CC1CCN(CCC2CCCCN2S(=O)(=O)c2cccc3ccccc23)CC1 (racemic)")
"> 3.16 µM"

Alright, here's another compound for you.
-- ask What does the record list as Ki for `CC1CCN(CC[C@H]2CCCN2S(=O)(=O)c2cccc3ccccc23)CC1` ?
-- reply 1.58 µM

The measurements presented in this section are drawn from ChEMBL document CHEMBL1133573.
